Hey, just so you know, these numbers are from ChEMBL document CHEMBL1833829.

The following molecules each carry a recorded pIC50 for UniProt P81908.
Sequence (P81908 whole entry): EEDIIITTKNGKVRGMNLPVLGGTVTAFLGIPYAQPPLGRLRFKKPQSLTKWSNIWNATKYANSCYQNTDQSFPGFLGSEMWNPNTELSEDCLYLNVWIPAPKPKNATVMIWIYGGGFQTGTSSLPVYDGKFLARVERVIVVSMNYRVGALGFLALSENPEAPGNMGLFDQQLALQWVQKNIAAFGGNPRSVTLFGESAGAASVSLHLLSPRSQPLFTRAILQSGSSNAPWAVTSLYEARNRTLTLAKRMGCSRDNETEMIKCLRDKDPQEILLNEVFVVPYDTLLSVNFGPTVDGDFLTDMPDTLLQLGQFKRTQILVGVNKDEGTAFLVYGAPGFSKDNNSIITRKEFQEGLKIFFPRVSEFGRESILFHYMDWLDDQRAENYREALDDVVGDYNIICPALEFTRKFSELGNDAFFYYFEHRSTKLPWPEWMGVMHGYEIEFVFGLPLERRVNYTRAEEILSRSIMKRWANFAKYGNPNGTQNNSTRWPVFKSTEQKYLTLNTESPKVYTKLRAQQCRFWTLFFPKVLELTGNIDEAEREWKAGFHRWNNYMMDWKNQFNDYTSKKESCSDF
# pIC50: negative log10 of molar concentration; output just the value

// known answers, use as guide
# pIC50 lookup, item CC(=O)N1CCN(c2nccc(NCc3cccc4ccccc34)n2)CC1
4.48

Look at this molecule and give its reported pIC50. CCCN1CCN(c2nccc(NC(c3ccccc3)c3ccccc3)n2)CC1
4.76

// returns reported pIC50 for input c1ccc(C(Nc2ccnc(N3CCN(C4CCCCC4)CC3)n2)c2ccccc2)cc1
5.12

GET /values?readout=pIC50&item= COCCN1CCN(c2nccc(NCc3cccc4ccccc34)n2)CC1
4.58

Which pIC50 value belongs to CC(C)N1CCN(c2nccc(NC(c3ccccc3)c3ccccc3)n2)CC1 ?
5.01

Recorded pIC50 for CN1CCN(c2nccc(NC(c3ccccc3)c3ccccc3)n2)CC1 , please?
4.62

Others:
Bench note: what pIC50 did CCCN1CCN(c2nccc(NCc3cccc4ccccc34)n2)CC1 show?
4.74

I am curious: what pIC50 value has been reported for OCCN1CCN(c2nccc(NCc3cccc4ccccc34)n2)CC1 ?
4.75
